Known log10(Kd) of a selection of binders
Molecular target: T1, His-tagged human CD38 (ACRO Biosystems CD8-H5224) (human, UniProt P28907 43-300)
T1 construct: bought protein; used for ELISA coating and as SPR analyte; not shown: His tag
Experiment: SPR, IgG
Record value = log10 of Kd given in nM.

40769p2.2.A6 IgG (antibody, V domains shown, IgG) VH: EVQLLESGGGLVQPGGSLRLSCAASGFTFSDYEMNWVRQAPGKGLEWVSAISITGSWTYYADSVKGRFTISRDNSENTLYLQMNNLRAEDTAVYYCANYKSYYGMDVWGRGTTVTVSS VL: QSVLTQPPSASGTPGQRVTISCSGSRSNIRNNLVNWYQQLPGTAPKLLIYNTQRPSGVPDRFSGSKSGTSASLAISGLQSEDEADYYCASWDASLNAWVFGGGTKLTVL ... 1.34
40769p2.2.H4 IgG (antibody, V domains shown, IgG) VH: EVQLLESGGGLVQPGGSLRLSCAASGFDFSSYWMNWVRQAPGKGLEWVSTISSGGSIIYYADSVKGQFTISRDNSKNTLYLQMNSLRAEDTAVYYCAKDNWNDYYGMDVWGQGTTVTVSS VL: QSVPTQPPSASGTPGQRVTISCSGSSSNIRDNYVYWYQQVPGTAPKLLIYKDDQRPSGVPDRFSGSKSGTSASLAISGLQSEDEADYYCATWDGSLNARVFGGGTKLTVL ... 1.76
40769p2.1.E5 IgG (antibody, V domains shown, IgG) VH: EVQLLESGGGLVQPGGSLRLSCTASAHIFKYNWMSWVRQAPGKGLEWVSSINSDGTITYYTDSVKGRFTISRDNSKNTLYLQMNSLRAEDTAVYYCAKDNWNDYAIDVWGQGTTVTVSS VL: QSVLTQPPSASGTPGQRVTISCSGSRSDIRNNYVSWYQQLPGTAPKLLIYSNGQRPSGVPDRFSGSKSGTSASLAISGLQSEDEADYYCAIWDDSLNAWVFGGGTKLTVL ... 0.07
40769p2.2.A5 IgG (antibody, V domains shown, IgG) VH: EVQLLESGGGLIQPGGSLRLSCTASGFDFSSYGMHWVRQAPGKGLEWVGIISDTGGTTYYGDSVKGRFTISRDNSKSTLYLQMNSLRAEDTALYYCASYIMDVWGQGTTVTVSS VL: QSVLTQPPSASGTPGQRVTISCSGSNSNVGDNAVYWYQQLPGTAPKLLFYGTNRRPSGVPDRFSGSKSGTSASLAISGLQSEDEADYYCAAWDDSLNAWVFGGGTKLTVL ... 1.27

State the recorded log10(Kd) for this entry: 40769p2.1.E8 IgG (antibody, V domains shown, IgG) VH: EVQLLESGGGLVQPGGSLRLSCTGFGFTFTDARMSWVRQAPGKGLEWVADISSYGDNTYYADSVKGRFTISRDNSANTLYVQMNSLRAEDTAVYYCAKRMEREVMTIKLDYHAMDVWGQGTTVTVSS VL: QSVLTQTPSVSGTPGQRVTISCSGVFNIRNYVSWYQQLPGTAPKLLIFKDDQRPSGVPDRFSGSRSGTSASLAISGLQSEDEADYYCAAWDIFLNVWVFGGGTKLTVL
-0.85

Data provenance: patent US20220306762A1
